From: PubChem BioAssay (NCI)

System: TK-10 renal
test name: NCI tumour cell line growth inhibition, 48 h
parameter: TGI

These solved cases illustrate the format of a correct answer.
COc1cc(CCc2ccc(OCCN(C)C)cc2)cc(OC)c1OC: > 100 µM
CCC1C(=O)C[C@H]2[C@@H]3C(O)CC4=CC(=O)CC[C@]4(C)[C@H]3CC[C@]12C (stereo not given in full): > 50 µM
CC(=O)OC[C@H]1O[C@@H](O[C@H]2[C@H](OC(C)=O)C=CO[C@@H]2COC(C)=O)C(OC(C)=O)[C@H]2OC(C)(C)O[C@H]21 (stereo not given in full): > 100 µM
CC(C)C[C@H](NC(=O)[C@H](Cc1cccc2ccccc12)NC(=O)N1CCOCC1)B(O)O: 0.0226 µM
CN1CC[C@@H](c2c(O)cc(O)c3c(=O)cc(-c4ccccc4Cl)oc23)[C@@H](O)C1: 34.8 µM

Please look at the items below and tell me TGI for each one, in order.
1. Cc1ccc(OCC(=O)N2N=C(c3ccccc3)CC2(O)c2ccccc2)cc1 (stereo not given)
2. COc1ccc2nc3cc(Cl)ccc3c(NCCCCCC(=O)NC(COc3cnc4c(ccc5cccnc54)c3)COc3cnc4c(ccc5cccnc54)c3)c2c1
3. O=c1c2ccccc2[nH]c(=S)n1-c1ccc(Br)cc1
4. CN1CC2=C(OC(N)=C(C#N)C2c2cccs2)/C(=C/c2cccs2)C1 (stereo not given)
5. Cc1ccc(-[n+]2c3cc(N)c(C)cc3nc3cc(C)c(Nc4ccccc4)cc32)cc1
6. Brc1ccc(N=NN2CCCCC2)cc1
7. O=[N+]([O-])c1cccc(-c2csc(N=Nc3c(O)[nH]c4ccccc34)n2)c1

Reply:
1: > 100 µM; 2: 91.6 µM; 3: > 100 µM; 4: > 100 µM; 5: 1.04 µM; 6: > 100 µM; 7: 33.9 µM

Batch: TGI for all items listed.
1. CC(=O)NCCCCNCCCNC(C)=O
2. CCOc1cc2ncc(C#N)c(Nc3ccc(OCc4cccc(F)c4)c(Cl)c3)c2cc1NC(=O)CC1CCSS1 (stereo not given)
3. N#Cc1c(-c2nc3ccccc3s2)c(=O)oc2cc(O)ccc12
4. Cc1c(-c2c(C)c3ccccc3n2S(=O)(=O)c2ccccc2)n(S(=O)(=O)c2ccccc2)c2ccccc12
5. COc1ccc(N(C(=O)Nc2ccc(Cl)c(Cl)c2)c2ccccc2)cc1
6. COc1cccc2cc(C)c(C(=O)c3ccccc3)nc12

Reply:
["> 100 µM", "6 µM", "> 100 µM", "> 100 µM", "> 10 µM", "> 100 µM"]

// for each compound in input: emit TGI
1. CCOC(=O)[C@@]1(C)C=C2O[C@@H]3OC4(CCCCC4)O[C@@H]3C2=C2C(O)=CC=C(O)[C@]21C(=O)OC
2. Cc1ccc2c(=O)cc(-c3csc4ccccc34)[nH]c2n1

Reply:
> 68 µM
9.78 µM

* * *

Tested on: KM12 colon
test name: NCI tumour cell line growth inhibition, 48 h
Kindly state TGI for each of the entries shown.

Solved entries (count: 2):
COC(=O)/C=C/c1ccccc1N=[S@](C)(=O)c1ccc(C)cc1: > 100 µM
Cc1ccc2c(=O)cc(-c3csc4ccccc34)[nH]c2n1: 0.86 µM

Query: Which TGI is reported with KM12 colon for this entry: `O=C(CNc1nncs1)NO` ?
Reply: > 100 µM

* * *

Tested on: SK-MEL-28 melanoma
test name: NCI tumour cell line growth inhibition, 48 h
parameter: TGI

CSc1nc(NC2CCCC2)c2cc[nH]c2n1: > 100 µM
Cc1ccc(C(=O)OC[C@H]2CC[C@@H](n3cc(N(C)C4CCCCC4)c(=O)[nH]c3=O)O2)cc1: > 100 µM
Cc1ncc(CN=Cc2ccc(Cl)cc2)c(N)n1: > 100 µM
Cc1cnc2c(C)ccc([N+](=O)[O-])c2c1NCCCN(C)C: > 100 µM
CC(=O)OC[C@H]1O[C@@H](O[C@H]2[C@H](OC(C)=O)C=CO[C@@H]2COC(C)=O)C(OC(C)=O)[C@H]2OC(C)(C)O[C@H]21 (stereo partly specified): > 100 µM
COc1ccc(C2=C(OC(=O)N(C)C)c3cccn3-c3cc(C(F)(F)F)ccc3S2)cc1: > 10 µM

Go through the list and state TGI for each entry.
1. CCNC(=O)Nc1cccc(C)n1
2. CC(=O)OC(Cc1cc(C=C(C(F)(F)F)C(F)(F)F)cc(C)n1)(C(F)(F)F)C(F)(F)F
3. COC(=O)c1cc(C)ccc1CC(Cc1cccc(C)c1)C(=O)OC (stereo unspecified)
4. CC(C)/C(Cl)=N/OC(=O)Nc1ccc(F)c(Cl)c1
5. O=[N+]([O-])c1cccc(-c2csc(N=Nc3c(O)[nH]c4ccccc34)n2)c1

Reply:
1. > 100 µM
2. 2.85 µM
3. > 100 µM
4. 5.46 µM
5. 36.1 µM

* * *

System: SNB-78 CNS
test name: NCI tumour cell line growth inhibition, 48 h
parameter: TGI

See these solved cases before continuing.
CC(=O)O/C=C(/C=C/OC(C)=O)C(C/C=C(\C)C#CC=C(C)C)OC(C)=O (centres undefined): 72.2 µM
O=C1C(Br)=CC2([N+](=O)[O-])CCNc3c(O)c4c5c(c3C2=C1Br)=NCCC=5C=N4 (centres undefined): 5.48 µM
O=C(O)CSc1n[nH]c(-c2ccc(O)cc2)n1: > 100 µM
COc1cc(CCc2ccc(OCCN(C)C)cc2)cc(OC)c1OC: > 100 µM
CC1=C(C(=O)Nc2c(C)cccc2C)C(c2ccc3c(c2)OCO3)C(C(=O)Nc2c(C)cccc2C)=C(C)N1: 78.8 µM

For each listed entry, give its TGI.
1. O=C(c1ccccc1)C(c1ccccc1)C1(O)C(=O)Nc2c(Cl)cc(Cl)cc21 (centres undefined)
2. COc1ccc2c3c1OC1CC(O)C=CC31CCN(C)C2 (centres undefined)
3. CCOC(=O)/C(O)=C1\C(=O)N(C)C(=O)C1c1ccc(OC)c(OC)c1 (centres undefined)
4. O=C1CC(O)C=C1Nc1ccc(Cl)cc1 (centres undefined)

Reply:
1. 67.4 µM
2. > 117 µM
3. > 100 µM
4. > 100 µM

* * *

Tested on: BT-549 breast
test name: NCI tumour cell line growth inhibition, 48 h; in the data active = GI50 below about 0.43 µM; inactive = the rest
# output must be one of active, inactive

CNC(=O)c1cc(OC2CCC(NC(=O)Nc3ccc(Cl)c(C(F)(F)F)c3)CC2)ccn1 (stereo unspecified): inactive
COc1cc(O)c([C@@H]2C[C@H](CCc3ccc(O)cc3)O[C@H](c3ccc(O)cc3)C2)c(O)c1C(=O)/C=C/c1ccc(O)cc1: inactive
COc1cc2c(cc1OC)C(=O)/C(=C/c1cccc(OCC(=O)c3ccccc3)c1)C2: inactive
N=C1C(c2nc(-c3ccc(Br)cc3)cs2)=C(O)CN1Cc1cccnc1: inactive
O=C(CN1CCN(c2ncccn2)CC1)Nc1ccc(Cl)cc1C(=O)c1ccccc1Cl: inactive

Query: Look up the recorded call for `CC(C)C[C@H](NC(=O)[C@H](Cc1cccc2ccccc12)NC(=O)N1CCOCC1)B(O)O` in this test.
Reply: active

* * *

Hi there, I'd appreciate the recorded TGI for every entry that follows.
Tested on: TK-10 renal
test name: NCI tumour cell line growth inhibition, 48 h
Give bare numbers, in µM.

COc1ccc(Cl)cc1Nc1nc(C(F)(F)F)ccc1C(=O)N/N=C/c1c(Cl)cccc1Cl: 50.8
CC1=C(C(=O)Nc2c(C)cccc2C)C(c2ccc3c(c2)OCO3)C(C(=O)Nc2c(C)cccc2C)=C(C)N1: 62.1
O=C(Oc1ccc(Cl)cc1Cl)c1ccccc1Nc1ccnc(C(F)(F)F)c1: 23.9
CCCCCc1cc(OC(=O)c2c(O)cc(OC)cc2CCCCC)cc(O)c1C(=O)O: 36.6
Cc1ccc(F)cc1NC(=O)O/N=C(\Cl)C(C)C: 15

Could I get TGI for every one of these entries?
1. Oc1ccc(/C=C\c2nnc(/C=C\c3ccc(O)c(O)c3)s2)cc1O
2. Cc1ccc([N+](=O)[O-])cc1S(=O)(=O)Nc1ccc(C2=NN(c3ccc([N+](=O)[O-])cc3[N+](=O)[O-])C(c3ccccc3)C2)cc1 (configuration not stated)
3. O=C(Nc1ccc(N2CCNCC2)cc1)c1[nH]ncc1Nc1ncnc2sc3c(c12)CCC3
4. ClCc1cccc(Cn2cnc3c(Cl)ncnc32)c1
5. CCCC/C=C1\CCC(CN2CCCCC2)C1=O (configuration not stated)
6. N=C1C(c2nc(-c3ccc(Br)cc3)cs2)=C(O)CN1Cc1cccnc1

Reply:
1. 21.4
2. 61.8
3. 2.05
4. 16.1
5. 28.1
6. 45.3

* * *

Test system: HCT-15 colon
test name: NCI tumour cell line growth inhibition, 48 h; in the data active means GI50 below about 0.43 µM; inactive means the rest
A correct response names exactly one class from label 1 = active, label 0 = inactive

COc1ccc2c(c1)/C(=C\c1c(C)nc3sc(C)cn13)C(=O)N2C: label 0
COc1ccc(-c2nc3sc(C)cn3c2/C=C/C(=O)c2cc(OC)c(OC)c(OC)c2)cc1: label 0
CCN(CC)CCOc1nc2ccc(OC)cc2c2c1-c1ccc(OC)cc1C2=O: label 0
C=C1CC2(OC1=O)C(=O)N(CCCCCCCN1C(=O)C3(CC(=C)C(=O)O3)c3ccccc31)c1ccccc12 (stereo not drawn): label 0
COc1cc2c(cc1OC)C(=O)/C(=C/c1cccc(OCC(=O)c3ccccc3)c1)C2: label 0

Query: Hey, what did the test say about COc1cc(C2CC(c3ccc(C)cc3)=NN2C=O)ccc1Oc1ccnc2cc(Cl)ccc12 (stereo not drawn) ?
Reply: label 0

Query: Per the records of this test, what outcome belongs to `Cc1c2c(nn1-c1ccc(S(=O)(=O)NC(=S)Nc3ccccc3)cc1)-c1ccccc1CC2` ?
Reply: label 0
